# Test system: E. coli
# method: Bacterial susceptibility testing, MIC by broth microdilution (CLSI)
# condition.label: broth microdilution, 35° C., 18-24 h

>  <compound>
O=C(CO)NC1CCN(Cc2ccc(C#Cc3ccc(C(CO)Cc4nc[nH]c(=O)c4O)cc3)cc2)CC1 (stereo not shown) [Compound 242]

>  <E. coli MIC>
A (A: ≤1 μg/mL)

$$$$
>  <compound>
O=c1[nH]cnc(CC(CNCCCF)c2ccc(C#Cc3ccc(CN4CCOCC4)cc3)cc2)c1O (stereo not shown) [Compound 107]

>  <E. coli MIC>
A (A: ≤1 μg/mL)

$$$$
>  <compound>
O=c1[nH]cnc(CC(CN[C@H]2C[C@H](F)C2)c2ccc(C#Cc3ccc(CN4CCOCC4)cc3)cc2)c1O (stereo partly shown) [Compound 79]

>  <E. coli MIC>
A (A: ≤1 μg/mL)

$$$$

---

# Tested on: E. coli
# method: Bacterial susceptibility testing, MIC by broth microdilution (CLSI)
# condition.label: broth microdilution, 35° C., 18-24 h
observation.type: E. coli MIC

>  <molecule>
O=C(CO)N1CC[C@@H](NCc2ccc(C#Cc3ccc(C(CO)Cc4nc[nH]c(=O)c4O)cc3)cc2)C1 (single isomer, unassigned) [Compound 46]

>  <reported.result>
A (A: ≤1 μg/mL)

$$$$
>  <molecule>
COC1CN(Cc2ccc(C#Cc3ccc(C(Cc4nc[nH]c(=O)c4O)CN4C(=O)OC[C@@H]4C)cc3)cc2)C1 (stereo partly drawn) [Compound 122]

>  <reported.result>
A (A: ≤1 μg/mL)

$$$$
